Exercise: for every item that follows, state its recorded Kd.
Target: Matrix-associated proTGFβ1 (hLTBP1, hLTBP3)
Test: MSD-SET, average over matrix-associated complexes
Type: binding, human
Details: average of (B) and (C), read-out: (D) ECM AVRG
Text: Column (A) of the table lists monoclonal antibodies with discrete amino acid sequences. […] Columns (B), (D), (E) and (F) provide affinities of each of the listed antibodies, measured in KD. […] Finally, relative ratios between the average KD values from columns (D) and (G) are expressed as “fold bias” in column (H). […] This is one way of quantitatively representing and comparing inherent bias of antibodies to their target complexes. […]
Give the value, in units of nM, as a plain number.

## Input # query: Kd of entry Ab33: proTGFβ1 antibody; VH SEQ ID NO: 141, VL SEQ ID NO: 15 (antibody, V domains shown) VH: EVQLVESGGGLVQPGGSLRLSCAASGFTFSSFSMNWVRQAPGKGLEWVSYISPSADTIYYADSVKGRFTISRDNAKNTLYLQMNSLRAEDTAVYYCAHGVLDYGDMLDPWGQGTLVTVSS VL: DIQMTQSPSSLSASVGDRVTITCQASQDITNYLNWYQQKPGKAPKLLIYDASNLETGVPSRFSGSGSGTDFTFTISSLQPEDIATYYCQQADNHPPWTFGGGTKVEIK
## Output 0.009

## Input Reported Kd, molecule Ab22: proTGFβ1 antibody; VH SEQ ID NO: 130, VL SEQ ID NO: 15 (antibody, V domains shown) VH: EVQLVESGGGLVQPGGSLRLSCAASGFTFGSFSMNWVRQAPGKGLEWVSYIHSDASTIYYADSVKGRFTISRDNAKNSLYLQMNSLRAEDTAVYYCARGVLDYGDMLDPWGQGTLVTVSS VL: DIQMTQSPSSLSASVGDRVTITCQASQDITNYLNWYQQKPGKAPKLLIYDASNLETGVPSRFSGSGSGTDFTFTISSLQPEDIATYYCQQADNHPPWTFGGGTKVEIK : ____
## Output 0.042
